Item-by-item account of half-life at 5 μM
experiment: In vitro intrinsic clearance in human hepatocytes with and without MAO inhibitors (first experiment); details: both, human, hepatocytes (pooled, 10 donors), in vitro half-life With inhibitors, human hepatocytes, 5 μM, with 100 nM clorgyline and 100 nM Deprenyl/Selegiline (Table 4)
# output: bare number, implied unit h

Please review the following examples before continuing.
{"compound": "[2H]C([2H])(Cc1c[nH]c2ccccc12)N(C)C [SPL028i, α,α-dideutero-N,N-dimethyltryptamine]", "assay readout": "half-life at 5 μM", "readout value": 2.83}
{"compound": "CN(C)CCc1c[nH]c2ccccc12 [SPL026, N,N-dimethyltryptamine]", "assay readout": "half-life at 5 μM", "readout value": 1.6}

Now let's try a different one.
**Query** Give half-life at 5 μM for NCc1ccccc1 [Benzylamine]
**Result** 7.67

---

Item-by-item account of half-life
assay: In vitro human mitochondrial fraction intrinsic clearance of SPL026 with/without MAO-A and MAO-B inhibitors; type: in vitro ADME; details: with 100 nM clorgyline (MAO-A inhibitor); 0.5 mg/mL human liver mitochondrial fraction, Clorgyline (MAO-A inhibitor) 100 nM

{"structure smiles string": "CN(C)CCc1c[nH]c2ccccc12", "half-life": "> 6.23 h"}

Now let's try a different one.
**Query** Give half-life for `NCCc1c[nH]c2ccc(O)cc12`
**Result** > 7 h

---

test: In vitro intrinsic clearance in human hepatocytes with and without MAO inhibitors (first experiment); details: both, human, hepatocytes (pooled, 10 donors), Intrinsic clearance Without inhibitors, human hepatocytes, without MAO-A/B inhibitor combination (Table 5)
assay readout: hepatocyte CLint at 5 μM (µL/min/1e6 cells)
# output: bare number, implied unit µL/min/1e6 cells

{"compound": "[2H]C([2H])(Cc1c[nH]c2ccccc12)N(C)C [SPL028i, α,α-dideutero-N,N-dimethyltryptamine]", "hepatocyte CLint at 5 μM [µL/min/1e6 cells]": 7.15}
{"compound": "NCCc1c[nH]c2ccc(O)cc12", "hepatocyte CLint at 5 μM [µL/min/1e6 cells]": 38.6}

**Query** Give hepatocyte CLint at 5 μM for `NCc1ccccc1`
**Result** 16.7

**Query** Give hepatocyte CLint at 5 μM for `CN(C)CCc1c[nH]c2ccccc12`
**Result** 13.8

---

experiment: In vitro intrinsic clearance in human hepatocytes, D2, D6 and D8 DMT (third experiment); details: both, hepatocytes (pooled, 10 donors)
assay readout: half-life at 5 μM

Please review the following examples before continuing.
{"compound": "COc1ccc([C@@H]2Sc3ccccc3N(CCN(C)C)C(=O)[C@@H]2OC(C)=O)cc1 [Diltiazem]", "half-life at 5 μM": "1.45 h"}
{"compound": "O=C(O)Cc1ccccc1Nc1c(Cl)cccc1Cl [Diclofenac]", "half-life at 5 μM": "0.345 h"}

**Query** Give half-life at 5 μM for [2H]C([2H])(Cc1c[nH]c2ccccc12)N(C)C [SPL028i, α,α-dideutero-N,N-dimethyltryptamine]
**Result** 3.88 h

**Query** Give half-life at 5 μM for CN(C)CCc1c[nH]c2ccccc12 [SPL026, N,N-dimethyltryptamine]
**Result** 1.65 h

---

Item-by-item account of half-life at 5 μM
assay: In vitro intrinsic clearance in human hepatocytes with and without MAO inhibitors (first experiment); settings: both, human, hepatocytes (pooled, 10 donors), in vitro half-life Without inhibitors, human hepatocytes, 5 μM, without MAO inhibitors (Table 4)
A complete answer gives the number and then names the unit.

**Query** Give half-life at 5 μM for `CN(C)CCc1c[nH]c2ccccc12`
**Result** 1.54 h

**Query** Give half-life at 5 μM for `NCc1ccccc1`
**Result** 1.27 h

**Query** Give half-life at 5 μM for `NCCc1c[nH]c2ccc(O)cc12`
**Result** 0.55 h
